Sourced from PubChem BioAssay (NCI)

- System: RPMI-8226 leukemia
- experiment.summary: NCI tumour cell line growth inhibition, 48 h
The entries below are paired with their reported TGI.

Answer with reported TGI of CC(C)OP(=O)(CCCCCCCCC/C=C/c1ccc2c(c1)OCCOCCOCCOCCO2)OC(C)C
> 100 µM

Answer with reported TGI of CC(=O)OCC1OC(OC2CCCC[Si](c3ccccc3)(c3ccccc3)O2)C(OC(C)=O)C(OC(C)=O)C1OC(C)=O (stereo not drawn)
> 100 µM

Answer with reported TGI of O=C1c2[nH]cc(CN3CCN(CCO)CC3)c2C(=O)c2c1c(O)c1ccccc1c2O
4.16 µM

* * *

- Tested on: OVCAR-3 ovarian
- experiment.summary: NCI tumour cell line growth inhibition, 48 h
readout.type: TGI

{"compound": "O=C1c2cc3c(cc2[C@@H]2NC4CCCC14O2)OCO3 (stereo partly specified)", "TGI": "> 100 µM"}
{"compound": "CC(C)=CCc1c(O)c(CC2=C(O)C(C)=C(O)C(CC=C(C)C)(C(=O)C(C)C)C2=O)c(O)c(C(=O)C(C)C)c1O (stereo unspecified)", "TGI": "> 38.1 µM"}
{"compound": "CC1(C)CC(=O)C(C(=O)C(=O)NC2=C(Cl)C(=O)c3ccccc3C2=O)C(=O)C1", "TGI": "> 100 µM"}
{"compound": "O=C1C2=C(CCCC2)Nc2cccc3ncn1c23", "TGI": "> 100 µM"}
{"compound": "O=C(NC1CCCCC1)NS(=O)(=O)c1ccc(-n2nc3c(c2-c2cccs2)Cc2ccccc2-3)cc1", "TGI": "> 100 µM"}
{"compound": "Nc1ccccc1C(=O)CCc1c[nH]c2ccccc12", "TGI": "> 100 µM"}

Answer with reported TGI of COC(=O)C(Cc1nc2ccc(Cl)cc2[nH]c1=O)/C(=N/O)C(=O)Nc1cccc(Cl)c1C (stereo unspecified)
> 100 µM

Answer with reported TGI of COc1ccc(N(CC(=O)O)S(=O)(=O)c2ccccc2)cc1
> 100 µM

Answer with reported TGI of CCOP(=O)(/C=C/n1ccc(=O)[nH]c1=O)OCC
> 100 µM

Answer with reported TGI of COc1cccc(NC(=O)CC(=O)Nc2cccc(OC)c2)c1
> 100 µM

Answer with reported TGI of C[C@]12CCc3nonc3C1CC[C@@H]1C2CC[C@]2(C)C(=O)/C(=N\O)CC12 (stereo partly specified)
> 100 µM

* * *

- Tested on: M14 melanoma
- experiment.summary: NCI tumour cell line growth inhibition, 48 h
readout.type: TGI

Some solved entries appear below for comparison.
{"compound": "CC1CN=C(N(C)C(=O)Nc2ccc(Cl)cc2)S1 (stereo unspecified)", "system.tested": "M14 melanoma", "TGI": "> 100 µM"}
{"compound": "Cc1nc2c(=O)n(C)c(=O)n(C)c2o1", "system.tested": "M14 melanoma", "TGI": "> 100 µM"}
{"compound": "COC(=O)c1c2c(c(C)[n+]([O-])c1C)C(=O)C(NCc1cccc(Cl)c1)=CC2=O", "system.tested": "M14 melanoma", "TGI": "2.4 µM"}
{"compound": "COC(=O)C(C)(Cc1ccc2c(c1)nnn2C(C)=O)NC(C)=O (stereo unspecified)", "system.tested": "M14 melanoma", "TGI": "> 100 µM"}
{"compound": "Cc1nn(C(=O)Cc2ccccc2)c2c1C(c1ccc3ccccc3c1O)SC(N)=N2 (stereo unspecified)", "system.tested": "M14 melanoma", "TGI": "> 100 µM"}

Answer with reported TGI of CSc1nc(-c2ccccc2)c(C#N)c(=O)[nH]1
> 100 µM

Answer with reported TGI of CCOP(=O)(/C=C/n1ccc(=O)[nH]c1=O)OCC
> 100 µM

Answer with reported TGI of CC1(C)[C@@H](Cn2nnc3c(N)ncnc32)CC[C@@]1(C)CO
> 100 µM

* * *

The entries below are paired with their reported TGI.
- Test system: IGROV1 ovarian
- experiment.summary: NCI tumour cell line growth inhibition, 48 h
Where a SMILES comes first, the peptide text is derived from it. [ ]: non-standard residue; d: D form. Ac5c = NC1(C(=O)O)CCCC1

{"compound": "COc1ccc(-c2nc3ccc([N+](=O)[O-])cc3c(=O)[nH]2)cc1", "TGI": "71.5 µM"}

Answer with reported TGI of COc1ccc(/C=C2\CS(=O)(=O)C/C(=C\c3ccc(OC)cc3)C2=O)cc1
5.71 µM

Answer with reported TGI of CC1CN=C(N(C)C(=O)Nc2ccc(Cl)cc2)S1 (stereo not given)
> 100 µM

Answer with reported TGI of COC(=O)C(C(=O)C(=O)Nc1ccc(Br)cc1)c1nc2ccc(Cl)cc2[nH]c1=O (stereo not given)
> 100 µM

Answer with reported TGI of NCC(=O)NC1(C(=O)O)CCCC1 (H-Gly-[Ac5c]-OH)
> 100 µM

Answer with reported TGI of Cc1nnc([S-])o1.[Au+].c1ccc([PH+](c2ccccc2)c2ccccc2)cc1
2.82 µM

* * *

- Tested on: SF-539 CNS
- experiment.summary: NCI tumour cell line growth inhibition, 48 h
The entries below are paired with their reported TGI.

Some solved entries appear below for comparison.
{"molecule": "CCCCC/C=C/C(=O)CCc1ccc(O)c(OC)c1", "TGI": "20.6 µM"}
{"molecule": "Cc1ccc2nc3n(c2c1)C(c1c(F)cccc1F)SC3 (stereo not given)", "TGI": "> 100 µM"}

Answer with reported TGI of COc1ccc(C2CC(c3ccc4ccccc4c3O)=NN2)cc1OC (stereo not given)
> 100 µM

Answer with reported TGI of c1ccc(C(c2ccccc2)c2ccncc2)cc1
> 100 µM

Answer with reported TGI of Cc1nc2c(=O)n(C)c(=O)n(C)c2o1
> 100 µM

* * *

- Tested on: COLO 205 colon
- experiment.summary: NCI tumour cell line growth inhibition, 48 h
readout.type: GI50

{"smiles.repr": "O=C(NNC(=O)C1CCN(S(=O)(=O)c2ccc(-c3ccccc3)cc2)CC1)c1ccc(C(F)(F)F)cc1", "system.tested": "COLO 205 colon", "result": "> 50 µM"}
{"smiles.repr": "C=C1C(=O)O[C@H]2[C@H]1CC/C(COC(=O)NCc1ccc(Cn3c(=O)sn(CCI)c3=O)cc1)=C\\CC[C@@]1(C)O[C@@H]21", "system.tested": "COLO 205 colon", "result": "1.86 µM"}

Below: the item to evaluate.
Answer with reported GI50 of c1cc(N2CCN(c3ccc(C4=NCCN4)cc3)CC2)ccc1C1=NCCN1
> 100 µM

* * *

- Test system: SF-295 CNS
- experiment.summary: NCI tumour cell line growth inhibition, 48 h; in the data active means GI50 below about 0.43 µM; inactive means the rest
Answer with one of the outcomes active, inactive

Here are 8 compounds together with their reported answers.
{"smiles.repr": "O=[N+]([O-])c1cc([N+](=O)[O-])c(N2CCCC2)cc1NN=C(c1ccc(O)cc1)c1ccc(O)cc1", "system.tested": "SF-295 CNS", "assigned.category": "inactive"}
{"smiles.repr": "CC(C)(C)CC(C)(C)c1ccc(OCCSC(=N)N)cc1", "system.tested": "SF-295 CNS", "assigned.category": "inactive"}
{"smiles.repr": "COc1ccc(CN2CCc3c(Sc4ccccc4)nc(N)nc3C2=O)c(OC)c1", "system.tested": "SF-295 CNS", "assigned.category": "inactive"}
{"smiles.repr": "CN1CCN(Cc2ccc(NC(=O)c3cnc(F)c(C#Cc4cnc(N)c5ncccc45)c3)cc2C(F)(F)F)CC1", "system.tested": "SF-295 CNS", "assigned.category": "active"}
{"smiles.repr": "COc1ccc(/C=C2\\CS(=O)(=O)C/C(=C\\c3ccc(OC)cc3)C2=O)cc1", "system.tested": "SF-295 CNS", "assigned.category": "inactive"}
{"smiles.repr": "CCOC(=O)c1c2c(n(Cc3ccc(Cl)cc3Cl)c1C)-c1nc(Cc3ccccc3)[nH]c1C(=O)C2=O", "system.tested": "SF-295 CNS", "assigned.category": "inactive"}
{"smiles.repr": "COc1cc(-c2cncn2-c2ccc(-c3nc4ccc(F)cc4s3)cc2)ccc1F", "system.tested": "SF-295 CNS", "assigned.category": "inactive"}
{"smiles.repr": "O[C@H]1C=C2[C@H](C[C@@H]1O)CN1C[C@H]2c2cc3c(cc21)OCO3", "system.tested": "SF-295 CNS", "assigned.category": "inactive"}

Tell me the assay call for CCCCCCCCCCCCCCCCNC(=O)OC(C)C please.
inactive

Tell me the assay call for CCCCC/C=C/C(=O)CCc1ccc(O)c(OC)c1 please.
inactive

* * *

The entries below are paired with their reported TGI.
- Tested on: SK-OV-3 ovarian
- experiment.summary: NCI tumour cell line growth inhibition, 48 h

Some solved entries appear below for comparison.
{"compound": "CCC(C)NC1=C(NC(C)=O)C(=O)c2ccccc2C1=O (centres undefined)", "result": "> 75 µM"}
{"compound": "Cc1ccc(NC(=O)CC/C(CC(=O)C(C)(C)C)=N/Nc2nnc(C)n2N)cc1C", "result": "> 100 µM"}
{"compound": "CC[N+](C)(CC)CCNC(=O)C(O)(c1ccccc1)c1ccccc1", "result": "> 100 µM"}

Below: the item to evaluate.
Answer with reported TGI of O=C1C2=C(CCCC2)Nc2cccc3ncn1c23
> 100 µM
